# assayOverview: logP determination by HPLC on reversed-phase column (EEC Directive 79/831 Annex V.A8)
# Assay type: physicochemical
# experimentalContext: reversed-phase C18 HPLC column; acidic range (pH 2.3), marked a); 0.1% aqueous phosphoric acid/acetonitrile gradient; reversed-phase C 18; 43° C.
measurementKind: chromatographic logP
Reply: number alone, nothing else.

Task item: Given CC(C)C1=NN(C(=S)Nc2cc(Cl)ccc2Cl)C(O)(C(F)(F)F)C1 (centres unmarked) [Example 33] , respond with its chromatographic logP.
Reply: 4.87

Task item: Return the recorded chromatographic logP value; entry: CC1=NN(C(=O)Nc2ccc(Cl)cc2)C(O)(C(F)(F)F)C1 (centres unmarked) [Example 114]
Reply: 3

Task item: Report chromatographic logP, nothing else, for this compound: COc1ccccc1NC(=S)N1N=C(C(C)C)CC1(O)C(F)(F)F (centres unmarked) [Example 30]
Reply: 4.23

Task item: Return chromatographic logP (reported value) for this compound: CC(C)C1=NN(C(=S)Nc2ccc(Cl)cc2Cl)C(O)(C(F)(F)F)C1 (centres unmarked) [Example 34]
Reply: 4.91

Task item: Complete the entry with chromatographic logP for CC(C)(C)C1=NN(C(=S)Nc2ccc(OC(F)(F)F)cc2)C(O)(C(F)(F)F)C1 (centres unmarked) [Example 64]
Reply: 4.94
